- Read-out: E-selectin (Homo sapiens) (UniProt P16581)
- Sequence (P16581 whole entry, looked up): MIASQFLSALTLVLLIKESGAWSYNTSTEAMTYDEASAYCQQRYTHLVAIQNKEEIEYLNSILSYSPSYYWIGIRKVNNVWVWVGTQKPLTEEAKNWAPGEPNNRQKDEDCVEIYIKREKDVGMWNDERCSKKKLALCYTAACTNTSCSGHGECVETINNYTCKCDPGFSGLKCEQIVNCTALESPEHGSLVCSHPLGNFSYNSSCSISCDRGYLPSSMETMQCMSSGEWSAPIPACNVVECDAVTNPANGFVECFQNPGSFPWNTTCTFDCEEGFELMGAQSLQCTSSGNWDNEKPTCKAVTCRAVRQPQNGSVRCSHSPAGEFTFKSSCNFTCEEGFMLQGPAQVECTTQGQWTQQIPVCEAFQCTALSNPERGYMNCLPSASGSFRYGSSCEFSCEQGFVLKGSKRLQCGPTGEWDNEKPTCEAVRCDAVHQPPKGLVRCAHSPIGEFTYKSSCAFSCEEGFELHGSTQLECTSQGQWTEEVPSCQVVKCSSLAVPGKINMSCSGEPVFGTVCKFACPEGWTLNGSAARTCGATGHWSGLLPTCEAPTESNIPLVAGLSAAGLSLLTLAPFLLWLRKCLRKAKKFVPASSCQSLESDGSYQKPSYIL
- Protocol: BSK_SAg_Eselectin: BioMAP Diversity Plus: SAg Assay for Eselectin Biomarker Activity (AID 2283091)
- Measurement Context: primary human HUVEC with PBMC; actives raise or lower the signal
Active and inactive are the calls of the source. How the source made its calls: active means hit-call score of the fitted dose curve at least 0.9, where 1 is the maximum; inactive means score below 0.9.
Lab note: assign the record to one of t (active), f (inactive)

Examples from the recorded data:
O=C(NO)C1(NS(=O)(=O)c2ccc(Oc3ccc(F)cc3)cc2)CCOCC1 | f
CCc1ccc(O)c(C(C)(C)C)c1 | t
CCn1nc(C)c2c1C(=O)NCC(c1ccc(O)cc1)=N2 | t
CCCCCCCC1CCC(=O)O1 (stereo not given) | f
C[C@]12C=CC(=O)C=C1CC[C@H]1[C@@H]3C[C@@H](O)[C@](O)(C(=O)CO)[C@@]3(C)C[C@H](O)[C@@]12F | t
CC[C@H](C)C(=O)O[C@H]1C[C@H](O)C=C2C=C[C@H](C)[C@H](CC[C@@H](O)C[C@@H](O)CC(=O)O)[C@H]21 | t
CCCCN1C(=O)[C@@H]([C@H](O)C2CCCCC2)NC(=O)C12CCN(Cc1ccc(Oc3ccc(C(=O)O)cc3)cc1)CC2 | f
O=S1(=O)CCCO1 | f
OC(CCl)CCl | f
S=P(N1CC1)(N1CC1)N1CC1 | f

Query: # lookup: test call for O=C(O)c1cccc(C[C@@H]2COc3ccc(OCc4nc5cc(F)ccc5s4)cc3[C@@H]2O)c1
Response: f

Query: # lookup: test call for CCCC(CCC)C(=O)O
Response: f

Query: # lookup: test call for FC(F)(F)C(F)(F)C(F)(F)C(F)(F)C(F)(F)C(F)(F)I
Response: f

Query: # lookup: test call for CC(=O)c1ccccc1
Response: f

Query: # lookup: test call for CCc1cccc(CC)c1N
Response: f
